assay: Evaluation pharmacokinetic parameters for Drosporine following multiple co-administration of Drosporine tablets and 0.02 mg ethinyl estradiol to 23 healthy females.; format: ADME, organism-based; design: dose 3 mg, route oral; conditions: human, in vivo; dose 3 mg, dosed compound id 30, dosed compound name DROSPIRENONE, gender female, regimen every 24h, route oral, sampling time1 1 day, study dosing duration 21 days, tissue Serum
experimentalEndpoint: Tmax

Specify measured Tmax for `C[C@]12CCC(=O)C=C1[C@@H]1C[C@@H]1[C@H]1[C@@H]3[C@@H]4C[C@@H]4[C@@]4(CCC(=O)O4)[C@@]3(C)CC[C@@H]12` .
1 to 2 h

###

assay: Evaluation pharmacokinetic parameters for Drosporine following multiple co-administration of Drosporine tablets and 0.02 mg ethinyl estradiol to 23 healthy females.; type: ADME, organism-based; set-up: dose 3 mg, route oral; conditions: human, in vivo; dose 3 mg, dosed compound id 30, dosed compound name DROSPIRENONE, gender female, regimen every 24h, route oral, sampling time1 21 day, study dosing duration 21 days, tissue Serum
experimentalEndpoint: half-life (min)
Answers are plain numbers, in min.

Specify measured half-life for `C[C@]12CCC(=O)C=C1[C@@H]1C[C@@H]1[C@H]1[C@@H]3[C@@H]4C[C@@H]4[C@@]4(CCC(=O)O4)[C@@]3(C)CC[C@@H]12` .
1850
